System: HT-29
Assay: Anticancer activity against human HT29 cells after 72 hrs in the presence of semicarbazide by Hoechst test
Type: functional, cell-based
Details: HT-29, 72 h
pIC50: −log10 of the molar value.

{"COMPOUND": "CCCC(=O)OCn1c(=O)c(F)cn(C2CCCO2)c1=O (configuration not stated)", "SYSTEM_NAME": "HT-29", "pIC50": 4.29}
{"COMPOUND": "O=c1c(F)cn(C2CCCO2)c(=O)n1CO (configuration not stated)", "SYSTEM_NAME": "HT-29", "pIC50": 3.79}

###

Assay: Anticancer activity against mouse Pan02 cells after 72 hrs by Hoechst test
Format: functional, cell-based
Settings: Pan02, 72 h

{"COMPOUND": "CCCC(=O)OCn1c(=O)c(F)cn(C2CCCO2)c1=O (stereo not drawn)", "UNIT_OF_MEASUREMENT": "µM", "IC50": 46}
{"COMPOUND": "O=c1c(F)cn(C2CCCO2)c(=O)n1CO (stereo not drawn)", "UNIT_OF_MEASUREMENT": "µM", "IC50": 96}
{"COMPOUND": "O=c1[nH]c(=O)n(C2CCCO2)cc1F (stereo not drawn) [TEGAFUR]", "UNIT_OF_MEASUREMENT": "µM", "IC50": 179}
